Taken from the supplement of paper PMC10266784.

B1: library; numbered along this chain (parent)
chain: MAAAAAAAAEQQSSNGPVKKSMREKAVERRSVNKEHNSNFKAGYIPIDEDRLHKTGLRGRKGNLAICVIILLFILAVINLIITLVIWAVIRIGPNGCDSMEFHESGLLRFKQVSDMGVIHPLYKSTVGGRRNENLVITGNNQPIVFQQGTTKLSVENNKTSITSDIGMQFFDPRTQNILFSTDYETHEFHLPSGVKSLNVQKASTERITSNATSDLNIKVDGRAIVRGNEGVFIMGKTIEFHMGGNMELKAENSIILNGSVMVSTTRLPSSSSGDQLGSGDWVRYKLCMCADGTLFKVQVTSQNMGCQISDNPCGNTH

variants of: B1; assay: SGCB cell-surface expression functional score (HA stain, bin4 vs bin1, normalised to synonymous) (log10 ratio); higher = more cell-surface SGCB (functional)
Class key for SGCB cell-surface expression functional score (log10) values: lower band: < -0.2; central band: ≥ -0.2 and < 0.2; upper band: ≥ 0.2

Here are 5 variants together with their reported answers.
- N246K: central band
- T266H: upper band
- L257Y: upper band
- S310M: central band
- N312A: central band

## Input Tag the class for V77L
## Output central band

## Input Category lookup for the variant N132M
## Output lower band
